SYSTEM_NAME: cytoplasmic kinase domain of human IGF-1R (IGF-1R-GST) (Homo sapiens, UniProt P08069)
Construct: cytoplasmic kinase domain of human IGF-1R (amino acids 964-1370); GST (glutathione-S-transferase)
Sequence (P08069 964-1367 limits assumed): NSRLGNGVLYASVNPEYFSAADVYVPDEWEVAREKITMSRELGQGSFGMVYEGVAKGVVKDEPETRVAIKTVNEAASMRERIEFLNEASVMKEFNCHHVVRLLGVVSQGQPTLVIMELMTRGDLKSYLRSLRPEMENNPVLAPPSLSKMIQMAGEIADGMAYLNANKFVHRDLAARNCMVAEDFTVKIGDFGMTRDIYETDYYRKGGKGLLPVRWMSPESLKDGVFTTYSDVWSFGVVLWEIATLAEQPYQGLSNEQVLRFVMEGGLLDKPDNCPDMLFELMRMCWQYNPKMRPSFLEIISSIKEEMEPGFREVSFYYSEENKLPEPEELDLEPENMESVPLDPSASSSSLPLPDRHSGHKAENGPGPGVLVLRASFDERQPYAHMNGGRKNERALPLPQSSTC
METHOD: Insulin-like growth factor-1 receptor (IGF-1R) kinase assay (DELFIA)
SETUP_CONDITIONS: IGF-1R-GST kinase activity, read-out: IGF1R IC50
Reported IC50 by item:
Write the value in nM as a bare number.

Here are 3 molecules together with their reported answers.
[[record]]
structure_as_smiles = "Cc1cc(Nc2ncc(Cl)c(NCc3cccc4c3C(C)(C)C(=O)N4)n2)c(F)cc1C1CCN(CC(C)(C)O)CC1"
quantity_measured = "IC50"
unit_string = "nM"
meas_value = 9

[[record]]
structure_as_smiles = "CCc1cc(C2CCN(CC(C)(C)O)CC2)ccc1Nc1ncc(C(F)(F)F)c(NCc2cccc3c2C(C)(C)C(=O)N3)n1"
quantity_measured = "IC50"
unit_string = "nM"
meas_value = 5

[[record]]
structure_as_smiles = "COc1cc(N2CCC(N3CCC3)CC2)ccc1Nc1ncc(C(F)(F)F)c(NCc2cccc3c2C(C)(C)C(=O)N3)n1"
quantity_measured = "IC50"
unit_string = "nM"
meas_value = 0.98


Shift focus to the following entry.
Read the entry COc1cc(N2CCC(NCCCN(C)C)CC2)ccc1Nc1ncc(C(F)(F)F)c(NCc2cccc3c2CC(=O)N3)n1 and write its reported IC50.
3

---

SYSTEM_NAME: cytoplasmic kinase domain of human IGF-1R (IGF-1R-GST) (Homo sapiens)
Construct: cytoplasmic kinase domain of human IGF-1R (amino acids 964-1370); GST (glutathione-S-transferase)
METHOD: Insulin-like growth factor-1 receptor (IGF-1R) kinase assay (DELFIA)
SETUP_CONDITIONS: IGF-1R-GST kinase activity, read-out: IGF1R IC50
Experimental: Insulin-Like Growth Factor-1 Receptor (IGF-1R)-Kinase Assay The kinase activity is measured by DELFIA® assay (dissociation-enhanced lanthanide fluorescence immunoassay, Perkin Elmer). […] Enzyme activity is measured in the presence of substances and a control substance. […] After 40 min at RT the reactions are stopped with 50 μL of stop solution (250 mM EDTA, 20 mM HEPES pH 7.4). […] The fluorescence signal is measured with a Wallac Victor TRF Reader. […]
# key: entry, value: IC50

Look over these answered cases.
[[record]]
compound = "COc1cc(N2CCC(C(=O)N(C)C)CC2)ccc1Nc1ncc(C(F)(F)F)c(NCc2cccc3c2C(C)(C)C(=O)N3)n1"
quantity_measured = "IC50"
meas_value = "13 nM"

[[record]]
compound = "CN1CCC(c2ccc(Nc3ncc(Cl)c(NCc4cccc5c4C4(CC4)C(=O)N5)n3)cc2)CC1"
quantity_measured = "IC50"
meas_value = "0.96 nM"


Fill in reported IC50 for this entry: COCC(=O)N1CCN(c2ccc(Nc3ncc(C(F)(F)F)c(NCc4cccc5c4C(C)(C)C(=O)N5)n3)c(OC)c2)CC1
5 nM

Give a short answer stating reported IC50 for COc1cc(C2CCN(CC(C)(C)O)CC2)ccc1Nc1ncc(Br)c(NCc2cccc3c2C(C)(C)C(=O)N3)n1 .
0.9 nM

Tell us which IC50 value is on record for COc1cc(N2CCC(N(C)C)CC2)ccc1Nc1ncc(C(F)(F)F)c(NCc2cccc3c2CC(=O)N3)n1
4 nM
